Origin of the recorded values: PubChem BioAssay (Tox21)

Assay: qHTS assay to identify small molecule agonists of the estrogen receptor alpha (ER-alpha) signaling pathway in the presence of an antagonist - cell viability counter screen (AID 1259386);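 note: cells exposed to compounds for 22 h at 37 °C before the viability read; % is set by controls: 0 for no effect and ±100 for the full control effect; nearly all actives have a fitted effect of over 30% in size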
Condition Label: VM7Luc4E2 viability, CellTiter-Fluor fluorescence, 22 h; series mostly up to 92.4 µM
Results filed as inconclusive are left out. Active and inactive are the calls of the source. Calls come from the whole dose curve; as a rule, active = well fitted cell-killing curve with a large enough effect in the repeat runs; inconclusive = weak or mixed curves, or effect the other way; inactive = no such curve, though single readings can be large or run the other way.
Measured Parameter: activity change, negative = cytotoxicity

1) CCN1CCN(c2cc(-c3ccc(F)cc3)c3c(n2)CCCCCC3)CC1 = -2.28% [at 19 µM] (inactive)
2) O=S(O)O = 0.0003% [at 19 µM] (inactive)
3) O=C=NCc1cccc(CN=C=O)c1 = 1.12% [at 19 µM] (inactive)
4) C=C/C=C/C=C/CCCCC = -2.67% [at 19 µM] (inactive)
5) CCCCCCCCCCCCCCCCCO = 2.39% [at 19 µM] (inactive)
6) N[C@@H](CSSC[C@H](N)C(=O)O)C(=O)O = 7.62% [at 0.349 µM] (inactive)
